assayed_target: rat CB2 receptor (rCB2) (Rattus norvegicus)
experiment: cell-based
Type: cell-based
settings: agonist or inverse agonist at rCB2
observable: +/− RCB2

# compound, +/− RCB2
records = [
    ("CN1CCn2c(-c3ccc(Cl)cc3F)nc(C(=O)NCc3ccc4[nH]c(=O)[nH]c4c3)c2C1", "−"),
    ("CNC(=O)[C@@H](NC(=O)c1nc(C2=CCOCC2)n2c1CN(C)CCC2)C(C)(C)C", "+"),
    ("CNC(=O)[C@H](CC(C)C)NC(=O)c1nc(-c2cc(Cl)ccc2F)n2c1CN(C)CCC2", "+"),
    ("CC(C)C[C@H](NC(=O)c1nc(-c2ccc(F)cc2)n2c1CN(C)CCC2)C(N)=O", "+"),
    ("CNC(=O)[C@@H](NC(=O)c1nc(-c2ccccc2)n2c1CN(S(=O)(=O)C1CC1)CC2)C(C)(C)C", "−"),
]

Exercise: What value of +/− RCB2 on rat CB2 receptor (rCB2) (Rattus norvegicus) does "CN1CCCn2c(-c3ccccc3)nc(C(=O)N[C@H](C(=O)NCCF)C(C)(C)C)c2C1" have?
Solution: +

Exercise: What value of +/− RCB2 on rat CB2 receptor (rCB2) (Rattus norvegicus) does "CNC(=O)[C@@H](NC(=O)c1nc(-c2cccc3cccnc23)n2c1CN(C)CCC2)C(C)(C)C" have?
Solution: −

Exercise: What value of +/− RCB2 on rat CB2 receptor (rCB2) (Rattus norvegicus) does "CNC(=O)[C@@H](NC(=O)c1nc(/C=C/c2ccsc2)n2c1CN(C)CCC2)C(C)(C)C" have?
Solution: +

Exercise: What value of +/− RCB2 on rat CB2 receptor (rCB2) (Rattus norvegicus) does "CNC(=O)[C@@H](NC(=O)c1nc(-c2ccc(C)c(F)c2)n2c1CN(C)CC2)C(C)(C)C" have?
Solution: −

Exercise: What value of +/− RCB2 on rat CB2 receptor (rCB2) (Rattus norvegicus) does "CNC(=O)[C@@H](NC(=O)c1nc(-c2ccc(-c3ccccc3)cc2)n2c1CN(C)CC2)C(C)(C)C" have?
Solution: −

Exercise: What value of +/− RCB2 on rat CB2 receptor (rCB2) (Rattus norvegicus) does "CC(C)CN1CCn2c(-c3ccccc3)nc(C(=O)NCC(C)(C)C)c2C1" have?
Solution: −

Exercise: What value of +/− RCB2 on rat CB2 receptor (rCB2) (Rattus norvegicus) does "CC(C)CCNC(=O)c1nc(-c2ccc(Cl)cc2)n2c1CN(CC(C)C)CC2" have?
Solution: −

Exercise: What value of +/− RCB2 on rat CB2 receptor (rCB2) (Rattus norvegicus) does "CNC(=O)[C@@H](NC(=O)c1nc(-c2cc(F)c(F)cc2F)n2c1CN(C)CCC2)C(C)(C)C" have?
Solution: +

Exercise: What value of +/− RCB2 on rat CB2 receptor (rCB2) (Rattus norvegicus) does "CNC(=O)[C@@H](NC(=O)c1nc(-c2ccccc2)n2c1CN(c1cncc(Cl)n1)CC2)C(C)(C)C" have?
Solution: −

Exercise: What value of +/− RCB2 on rat CB2 receptor (rCB2) (Rattus norvegicus) does "CNC(=O)[C@@H](NC(=O)c1nc(-c2cc(F)cc(F)c2)n2c1CN(C)CC2)C(C)(C)C" have?
Solution: +

* * *

assayed_target: rat CB2 receptor (rCB2) (Rattus norvegicus, UniProt Q9QZN9)
experiment: cell-based
Type: cell-based
settings: agonist or inverse agonist at rCB2
observable: +/− RCB2

Use these answered entries as a reference point.
# compound, +/− RCB2
data = [
    ("CC(C)(C)C(=O)N1CCn2c(-c3ccccc3)nc(C(=O)NC3C4(C)CCC(C4)C3(C)C)c2C1 (centres unmarked) [Compound 123]", "−"),
    ("CNC(=O)[C@@H](NC(=O)c1nc(-c2ccccc2)n2c1CN(S(C)(=O)=O)CC2)C(C)(C)C [Compound 92]", "−"),
    ("CNC(=O)[C@@H](NC(=O)c1nc(-c2cccc(F)c2)n2c1CN(C)CCC2)C(C)(C)C [Compound 345]", "+"),
    ("C=C(c1nc(C(=O)N[C@H](C(=O)NC)C(C)(C)C)c2n1CCCN(C)C2)C(F)(F)F [Compound 453]", "+"),
    ("CNC(=O)[C@@H](NC(=O)c1nc(-c2ccccc2OC(F)(F)F)n2c1CN(C)CCC2)C(C)(C)C [Compound 333]", "+"),
    ("CC(C)CN1CCn2c(-c3ccccc3)nc(C(=O)N[C@@H](CO)C(C)(C)C)c2C1 [Compound 68]", "−"),
    ("CN1CCn2c(-c3ccc(Cl)cc3F)nc(C(=O)Nc3ccc(S(N)(=O)=O)cc3)c2C1 [Compound 208]", "−"),
]

Let's switch to this compound now.
Exercise: Value lookup for +/− RCB2; key = C[C@H](NC(=O)c1nc(-c2ccccc2)n2c1CN(CCO)CC2)c1ccccc1 [Compound 146]
Solution: −

* * *

assayed_target: rat CB2 receptor (rCB2) (Rattus norvegicus, UniProt Q9QZN9)
experiment: cell-based
Assay type: cell-based
settings: agonist or inverse agonist at rCB2
observable: +/− RCB2

Use these answered entries as a reference point.
# compound, +/− RCB2
records = [
    ("CNC(=O)[C@@H](NC(=O)c1nc(-c2ccccc2)n2c1CN(S(=O)(=O)c1ccc(F)cc1)CC2)C(C)(C)C [Compound 93]", "−"),
    ("Cc1ccc(-c2nc(C(=O)N[C@H](c3nc(C)no3)C(C)(C)C)c3n2CCCNC3)c(F)c1 [Compound 520]", "−"),
    ("CNC(=O)[C@@H](NC(=O)c1nc(C2CCCC2)n2c1CN(C)CCC2)C(C)(C)C [Compound 497]", "+"),
    ("Cc1ccc(-c2nc(C(=O)N[C@H](c3nc(C)no3)C(C)(C)C)c3n2CCCN(C)C3)c(F)c1 [Compound 522]", "−"),
]

Exercise: Value lookup for +/− RCB2; key = CNC(=O)[C@@H](NC(=O)c1nc(-c2cccc(S(C)(=O)=O)c2)n2c1CN(C)CCC2)C(C)(C)C [Compound 409]
Solution: −

Exercise: Value lookup for +/− RCB2; key = CCS(=O)(=O)N1CCn2c(-c3ccccc3)nc(C(=O)NC3CCCCC3)c2C1 [Compound 118]
Solution: −

Exercise: Value lookup for +/− RCB2; key = CNC(=O)[C@H](CC(C)C)NC(=O)c1nc(-c2ccc(F)cc2F)n2c1CN(C)CCC2 [Compound 534]
Solution: +

* * *

assayed_target: rat CB2 receptor (rCB2) (Rattus norvegicus, UniProt Q9QZN9)
Sequence (Q9QZN9 1-360): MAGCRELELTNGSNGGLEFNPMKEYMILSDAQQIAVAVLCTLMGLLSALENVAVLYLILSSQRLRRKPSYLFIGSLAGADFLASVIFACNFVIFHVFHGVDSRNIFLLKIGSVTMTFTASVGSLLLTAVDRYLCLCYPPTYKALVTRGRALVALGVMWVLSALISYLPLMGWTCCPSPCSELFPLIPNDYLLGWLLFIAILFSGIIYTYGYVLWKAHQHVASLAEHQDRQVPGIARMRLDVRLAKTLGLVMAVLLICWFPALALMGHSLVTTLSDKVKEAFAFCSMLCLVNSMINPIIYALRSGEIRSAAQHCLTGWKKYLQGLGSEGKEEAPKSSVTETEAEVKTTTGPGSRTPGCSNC
experiment: cell-based
Format: cell-based
settings: agonist or inverse agonist at rCB2

# smiles_repr, +/− RCB2
data = [
    ("C[C@H](NC(=O)c1nc(-c2ccccc2)n2c1CN(C(=O)OC(C)(C)C)CC2)c1ccccc1", "−"),
    ("CN1CCCn2c(-c3ccccc3)nc(C(=O)N[C@H](C(=O)NCC3CCOCC3)C(C)(C)C)c2C1", "+"),
    ("CC(C)CCNC(=O)c1nc(-c2ccc(Cl)cc2)n2c1CNCC2", "−"),
    ("CNC(=O)[C@@H](NC(=O)c1nc(-c2ccc(F)c(C)c2)n2c1CNCC2)C(C)(C)C", "−"),
]

* * *

Measured EC50 of individual entries
assayed_target: UniProt:Q9QZN9
experiment: cell-based
Assay type: cell-based

# smiles_repr, observable, meas_value
rows = [
    ("CCC/C=C/c1nc(C(=O)N[C@H](C(=O)NC)C(C)(C)C)c2n1CCN(C)C2", "EC50", "> 10 µM"),
    ("CNC(=O)[C@@H](NC(=O)c1nc(CCCN2CCOCC2)n2c1CN(C)CC2)C(C)(C)C", "EC50", "> 10 µM"),
    ("CNC(=O)[C@@H](NC(=O)c1nc(-c2ccc(OC)cc2C)n2c1CN(C)CCC2)C(C)(C)C", "EC50", "> 10 µM"),
    ("CNC(=O)[C@H](C)NC(=O)c1nc(-c2ccccc2)n2c1CN(Cc1cncnc1)CC2", "EC50", "> 10 µM"),
]

Exercise: Value lookup for EC50; key = "CNC(=O)[C@@H](NC(=O)c1nc(-c2ccccc2C(N)=O)n2c1CN(C)CCC2)C(C)(C)C"
Solution: > 10 µM

Exercise: Value lookup for EC50; key = "CNC(=O)[C@@H](NC(=O)c1nc(-c2ccc(F)c(C(=O)N3CCOCC3)c2)n2c1CN(C)CCC2)C(C)(C)C"
Solution: > 10 µM

Exercise: Value lookup for EC50; key = "CNC(=O)[C@@H](NC(=O)c1nc(-c2ccc(C(=O)N(C)C)c(F)c2)n2c1CN(C)CCC2)C(C)(C)C"
Solution: > 10 µM
